These entries and their values trace back to paper PMC9482650.

Biological target: GRIP2_5, Q9C0E4
Sequence (Q9C0E4 544-642): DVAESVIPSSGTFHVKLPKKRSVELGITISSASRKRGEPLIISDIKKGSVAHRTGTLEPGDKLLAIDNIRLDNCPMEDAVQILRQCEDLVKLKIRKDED
Assay: holdup assay
Set-up: key: below the threshold = too weak to quantify, mostly under pKd 3.1 to 4
Conditions: plain residues with an end cap or a label only (N-terminal biotin on a linker: ttds)
reported metric: pKd

KQVVPFSSSV [GDA, Q9Y2T3] :: below the threshold
KLVIKTETTV [RASSF6, Q6ZTQ3] :: below the threshold
GARVSKETPL [MAPK12, P53778] :: below the threshold
